This section presents molecules with their documented log10 of IC50 values.
Tested on: Mycobacterium tuberculosis H37Rv growth in 7H9 media
test.name: M. tuberculosis growth inhibition, dose response, H37Rv, 7H9 media, purified and synthesized compounds, set 4 (AID 504857)
test.conditions: measured here: M. tuberculosis growth IC50
measurement.kind: log10 of IC50 (log10 of the value in nM)

| molecule | measurement.kind | value.observed |
| --- | --- | --- |
| CC1CCN(C(=O)C2CCN(c3nnc(-n4cccc4)s3)CC2)CC1 | log10 of IC50 | 3.45 |
| O=C(CSc1nc2ccccc2c(=O)[nH]1)NC1CCCCC1 | log10 of IC50 | 2.40 |
| Cc1cc(Br)ccc1NC(=O)c1cnc(N2CCN(c3ccccn3)CC2)c2ccccc12 | log10 of IC50 | 3.01 |
| Cc1ccc(C(=O)N/N=C(/CC(=O)c2cccs2)C(F)(F)F)cc1 | log10 of IC50 | 3.09 |
| COC(=O)C(C)Oc1ccc(Cc2ncc(C(F)(F)F)cc2Cl)cc1 (stereo not given) | log10 of IC50 | 3.64 |
| Cc1cc(C)n2nc(N)c(N=Nc3ccccc3)c2n1 | log10 of IC50 | 3.67 |
| CNC(=O)CSc1nc2ccccc2c(=O)[nH]1 | log10 of IC50 | 4.74 |
| CC(C)CCNC(=O)CSc1nc2c(c(=O)[nH]1)CCC2 | log10 of IC50 | 3.06 |
| Cc1nc(SCC(=O)NCCC(C)C)[nH]c(=O)c1C | log10 of IC50 | 3.76 |
| c1ccc(/N=C2\N=C(Nc3ccccn3)c3ccccc32)nc1 | log10 of IC50 | 3.01 |
| O=C(CSc1nc2ccccc2c(=O)[nH]1)NCc1ccc(Cl)cc1 | log10 of IC50 | 2.88 |
| CCOc1ccc(-c2cc(C)[n+](CCc3ccc(OC)c(OC)c3)c(-c3ccc(OCC)cc3)c2)cc1 | log10 of IC50 | 2.89 |
| CC(C)NC(=O)CSc1nc2ccccc2c(=O)[nH]1 | log10 of IC50 | 4.01 |
| O=C(CSc1nc2ccccc2c(=O)[nH]1)NC1CCCC1 | log10 of IC50 | 2.38 |
| Cc1cccc(/C=C/C(=O)c2ccc([N+](=O)[O-])o2)c1 | log10 of IC50 | 2.83 |
| CCOC1OC(=O)C(Cl)=C1Nc1ccccc1C (stereo not given) | log10 of IC50 | 3.58 |
| CC[N+](C)(CC)CCCCOc1ccc2c(c1)C(=O)c1cc(OCCCC[N+](C)(CC)CC)ccc1-2 | log10 of IC50 | 3.39 |
| Cc1ccc(NC(=O)COC(=O)CCc2c[nH]c3ccccc23)cc1[N+](=O)[O-] | log10 of IC50 | 3.41 |
| Nc1c(C(=O)NC2CCCCC2)nsc1C(=O)OCC(=O)NC1CCCCC1 | log10 of IC50 | 3.65 |
| Cc1cccc(-c2oc3ccc(-c4ccc5c(c4)OCO5)cc3c2C#Cc2cncn2C)c1 | log10 of IC50 | 3.41 |
| Cc1[nH]c2ccccc2c1C(=O)COC(=O)c1ccc([N+](=O)[O-])s1 | log10 of IC50 | 3.23 |
| Cc1nc(SCC(=O)NC2CCCC2)[nH]c(=O)c1C | log10 of IC50 | 3.80 |
